# subjectOfTest: Aβ(1-42) (Homo sapiens, UniProt P05067)
# Construct: dissolving Aβ(1-42) HCl salt in hexafluoroisopropanol (HFIP)
# Sequence (P05067 672-713 limits assumed): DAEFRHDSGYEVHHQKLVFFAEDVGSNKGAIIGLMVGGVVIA
# experimentalProtocol: Thioflavin-T fluorimetric assay of Aβ(1-42) aggregation
# runParameters: 10 μM Aβ(1-42); thioflavin-T fluorescence; read-out: IC50 inhibiting 10 μM Aβ(1-42) aggregation
pIC50: −log10 of the molar value.
reportedMetric: pIC50

// solved cases for pIC50 follow
                                   molecule  reportedmetric  assayresult
0  Oc1cccc(Nc2ccc(Oc3cccc(N4CCOCC4)c3)cn2)c1 [Example 31]           pIC50         4.82
1  COc1cc(Nc2ccc(Oc3cccc(N(C)C)c3)cn2)ccc1F [Example 17]           pIC50         5.05

A: COc1cc(Nc2ccc(Oc3cccc(N4CCOCC4)c3)cn2)ccc1F [Example 27]
B: Oc1cccc(Nc2ccc(Oc3ccc(F)cc3)cn2)c1 [Example 1]
Incoming: Which one would you say has the larger pIC50 value: A , or B ? Selection: enter the item's label.
Outgoing: B
(B: 5.30, A: 4.96)
